Test: Plasma pharmacokinetics of tosedostat, CHR-79888 and paclitaxel (LC-MS/MS, noncompartmental)
Conditions: human, plasma, oral, 180 mg, Cmax, cohort 4: CHR-2797 180 mg, paclitaxel 175 mg m^−2; day 21, tosedostat without paclitaxel; plasma; mean (±s.e.m.)
property-measured: Cmax (ng/mL)

chemical_structure=CC(C)C[C@@H](C(=O)N[C@H](C(=O)OC1CCCC1)c1ccccc1)[C@H](O)C(=O)NO observed_value=1400

###

Test: Plasma pharmacokinetics of tosedostat, CHR-79888 and paclitaxel (LC-MS/MS, noncompartmental)
Settings: human, plasma, oral, 180 mg, T½, cohort 4: CHR-2797 180 mg, paclitaxel 175 mg m^−2; day 21, tosedostat without paclitaxel; plasma; mean (±s.e.m.)
property-measured: half-life (min)

chemical_structure=CC(C)C[C@@H](C(=O)N[C@H](C(=O)OC1CCCC1)c1ccccc1)[C@H](O)C(=O)NO observed_value=66

###

Test: Plasma pharmacokinetics of tosedostat, CHR-79888 and paclitaxel (LC-MS/MS, noncompartmental)
Details: human, plasma, oral, Vz/F, cohort 4: CHR-2797 180 mg, paclitaxel 175 mg m^−2; day 22, tosedostat in combination with paclitaxel; plasma; mean (±s.e.m.)
property-measured: Vd/F (L)

chemical_structure=CC(C)C[C@@H](C(=O)N[C@H](C(=O)OC1CCCC1)c1ccccc1)[C@H](O)C(=O)NO property_measured=Vd/F observed_value=471

###

Test: Plasma pharmacokinetics of tosedostat, CHR-79888 and paclitaxel (LC-MS/MS, noncompartmental)
Details: human, plasma, oral, 180 mg, AUC0−t, cohort 4: CHR-2797 180 mg, paclitaxel 175 mg m^−2; day 21, tosedostat without paclitaxel; plasma; mean (±s.e.m.)
property-measured: AUC(0-t)

molecule="CC(C)C[C@@H](C(=O)N[C@H](C(=O)OC1CCCC1)c1ccccc1)[C@H](O)C(=O)NO [tosedostat]" property_measured=AUC(0-t) observed_value="2520 ng·h/mL"

###

Test: Plasma pharmacokinetics of tosedostat, CHR-79888 and paclitaxel (LC-MS/MS, noncompartmental)
Conditions: human, plasma, oral, 130 mg, T½, cohort 3: CHR-2797 130 mg, paclitaxel 175 mg m^−2; day 21, tosedostat without paclitaxel; plasma; mean (±s.e.m.)
property-measured: half-life (h)

chemical_structure=CC(C)C[C@@H](C(=O)N[C@H](C(=O)OC1CCCC1)c1ccccc1)[C@H](O)C(=O)NO observed_value=1.1

###

Assay: Plasma pharmacokinetics of tosedostat, CHR-79888 and paclitaxel (LC-MS/MS, noncompartmental)
Conditions: human, plasma, oral, AUC0−t, cohort 3: CHR-2797 130 mg, paclitaxel 175 mg m^−2; day 22, tosedostat in combination with paclitaxel; plasma; mean (±s.e.m.)
property-measured: AUC(0-t) (ng·h/mL)

compound="CC(C)C[C@@H](C(=O)N[C@H](C(=O)OC1CCCC1)c1ccccc1)[C@H](O)C(=O)NO [tosedostat]" measurement_units=ng·h/mL observed_value=1400

###

Test: Plasma pharmacokinetics of tosedostat, CHR-79888 and paclitaxel (LC-MS/MS, noncompartmental)
Settings: human, plasma, oral, 90 mg, T½, cohort 2: CHR-2797 90 mg, paclitaxel 175 mg m^−2; day 21, tosedostat without paclitaxel; plasma; mean (±s.e.m.)
property-measured: half-life (h)

chemical_structure=CC(C)C[C@@H](C(=O)N[C@H](C(=O)OC1CCCC1)c1ccccc1)[C@H](O)C(=O)NO measurement_units=h observed_value=1.3
